Measured Drug uptake of individual entries
test system: Putamen; experiment: Drug uptake in anesthetized cynomolgus monkey brain putamen after 235 mins postinjection; format: ADME, organism-based, Macaca fascicularis; details: in vivo
parameter: Drug uptake

> print(dat)
                                   compound  measured.result
1  O=C(OCC[18F])C1C2CCC(CC1c1cccc(/C=C\I)c1)N2 (stereo not given)             2.35
2  O=C(OCCC[18F])C1C2CCC(CC1c1cccc(/C=C\I)c1)N2 (stereo not given)             3.02
3  O=C(OCC[18F])C1C2CCC(CC1c1cccc(/C=C\Br)c1)N2 (stereo not given)             2.98
4  O=C(OCCC[18F])C1C2CCC(CC1c1cccc(/C=C\Br)c1)N2 (stereo not given)             3.27
5  O=C(OCC[18F])C1C2CCC(CC1c1ccc(/C=C\I)cc1)N2 (stereo not given)             3.83
